// provenance: ChEMBL document CHEMBL1649134

tested on: Klebsiella pneumoniae; test: Antimicrobial activity against multidrug resistant Klebsiella pneumoniae ATCC 11296 by broth dilution method; assay type: functional
measurement_name: MIC (µg/mL)
Number in µg/mL, nothing else.

entry_smiles	measured_target	MIC, µg/mL
CO/N=C(\C(=O)N[C@@H]1C(=O)N2C(C(=O)[O-])=C(C[N+]3(C)CCCC3)CS[C@H]12)c1csc(N)n1	Klebsiella pneumoniae	0.125
CO[C@@]1(NC(=O)Cc2cccs2)C(=O)N2C(C(=O)O)=C(COC(N)=O)CS[C@@H]21	Klebsiella pneumoniae	8
O=C(N[C@H](CO)[C@H](O)c1ccc([N+](=O)[O-])cc1)C(Cl)Cl	Klebsiella pneumoniae	4

Write down the reported MIC of CN(C)[C@@H]1C(O)=C(C(N)=O)C(=O)[C@@]2(O)C(O)=C3C(=O)c4c(O)cccc4[C@@](C)(O)[C@H]3C[C@@H]12 , test system: Klebsiella pneumoniae.
2
